Biological target: Neuronal acetylcholine receptor (Rattus norvegicus) (UniProt P04757+P09483+P12389+P12390+P12392+P43144+Q9JLB5+P12391+P43143+P20420+Q05941)
Assay: Ability to displace [3H]cytisine binding to nicotinic receptor in synaptic membrane fractions from rat cerebral cortices at a concentration of 10 uM.
Type: cell membranes
Param threshold (50%) applies to inhibition; output label 1 when value >= threshold, label 0 when value < threshold.

COMPOUND	CATEGORY_LABEL
COc1ccc(COc2ccc(-c3cc(/C=C4/CN5CCC4CC5)on3)cc2OCc2ccc(OC)cc2)cc1	label 0

Attention now turns to another entry.
(Q) Form field: inhibition at least 50%? Entry: COc1ccc(COc2ccc(-c3cc(/C=C4/CN5CCC4CC5)on3)cc2)cc1
(A) label 0
